Target: COX-2 (Homo sapiens, UniProt P35354)
Construct: gene PTGS2; docking used 4M11
Sequence (P35354 18-604): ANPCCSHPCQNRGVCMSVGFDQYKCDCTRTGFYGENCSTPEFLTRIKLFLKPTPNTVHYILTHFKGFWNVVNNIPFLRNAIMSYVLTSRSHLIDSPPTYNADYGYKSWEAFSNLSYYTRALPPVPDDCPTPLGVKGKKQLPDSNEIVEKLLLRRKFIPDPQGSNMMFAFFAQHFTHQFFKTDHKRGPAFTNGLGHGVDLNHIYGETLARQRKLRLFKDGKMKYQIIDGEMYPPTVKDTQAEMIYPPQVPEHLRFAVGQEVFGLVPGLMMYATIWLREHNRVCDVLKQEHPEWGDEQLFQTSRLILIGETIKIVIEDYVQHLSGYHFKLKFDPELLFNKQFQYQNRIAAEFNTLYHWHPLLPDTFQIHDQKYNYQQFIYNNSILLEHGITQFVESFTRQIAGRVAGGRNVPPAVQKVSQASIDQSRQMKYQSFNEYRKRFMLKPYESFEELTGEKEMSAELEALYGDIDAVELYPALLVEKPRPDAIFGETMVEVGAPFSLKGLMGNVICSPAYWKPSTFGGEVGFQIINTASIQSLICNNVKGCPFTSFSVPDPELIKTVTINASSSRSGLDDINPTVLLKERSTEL
Test: colorimetric COX peroxidase assay, […] nm (Cayman […])
Format: biochemical
Details: read-out: Cyclooxygenase Inhibition Assay IC50 [μM] / COX-2
PROPERTY: IC50 (µM)
Enter your answer as a number in µM; do not include the unit.

Query: # query: IC50 of entry Cc1c2c(OCc3nnc(SCC(=O)N4CCN(c5ncccn5)CC4)o3)nn(C)c(=O)c2c(C)n1-c1ccccc1
Reply: 160

Query: Request the reported IC50 associated with CCCCn1c(C)c2c(OCc3nnc(SCC(=O)N4CCN(c5ncccn5)CC4)o3)nn(C)c(=O)c2c1C
Reply: 371

Query: What measured IC50 goes with CCCCn1c(C)c2c(OCc3nnc(SCC(=O)N4CCN(c5ccccc5)CC4)o3)nn(C)c(=O)c2c1C ?
Reply: 257

Query: For the molecule Cc1c2c(OCc3nnc(SCC(=O)N4CCN(c5ccccc5)CC4)o3)nn(C)c(=O)c2c(C)n1-c1ccccc1 , what IC50 is on record?
Reply: 659
